system: 786-0; experiment: NCI tumour cell line growth inhibition, 48 h
Active and inactive are the calls of the source. Cut-off read from the data, not from the text of the source: active = GI50 up to about 1.1 µM and inactive = higher.
measured_attribute: GI50

molecule	recorded_measurement
O=C1C2CC[C@@H]3C(=O)C(Cl)(Cl)[C@@H]3CCC2C1(Cl)Cl (some centres undefined)	> 100 µM (inactive)
Nc1nc(N)c2cc(S(=O)(=O)c3ccc4ccccc4c3)ccc2n1	3.66 µM (inactive)
O=C(C/N=C(\CN(c1ccccc1)c1ccccc1)Oc1c([N+](=O)[O-])cc([N+](=O)[O-])cc1[N+](=O)[O-])N1CCNCC1	> 100 µM (inactive)
CCOC(=O)c1c(N2CCCC2)[nH]c(=O)c(C(c2ccc(N(C)C)cc2)c2c(O)c(C(=O)OCC)c(N3CCCC3)[nH]c2=O)c1O	> 100 µM (inactive)

###

system: HCC 2998; experiment: NCI tumour cell line growth inhibition, 48 h
Active and inactive are the calls of the source. No stated cut-off is given here; in the data, active = GI50 up to about 1.1 µM and inactive = higher.
measured_attribute: GI50

compound	test_system	measured_attribute	recorded_measurement
Cc1ccccc1C(=O)N1CCc2c([nH]c3ccccc23)C1	HCC 2998	GI50	18.5 µM (inactive)
CC(=O)OCCOCNC(=S)N/N=C/c1ccc([N+](=O)[O-])s1	HCC 2998	GI50	43.2 µM (inactive)
CCOC(=O)CN(CC)C(=O)NC12CC3CC(CC(C3)C1)C2	HCC 2998	GI50	222 µM (inactive)
Oc1ccc(-c2cn3cc(C(F)(F)F)ccc3n2)cc1	HCC 2998	GI50	22.1 µM (inactive)
Cn1cc2ccccc2c1-c1nc(F)nc(F)n1	HCC 2998	GI50	> 100 µM (inactive)
CCOC(=O)C(NC(=O)CC)(Nc1ccc(S(=O)(=O)Nc2ccc(OC)nn2)cc1)C(F)(F)F (stereo unspecified)	HCC 2998	GI50	27.4 µM (inactive)
CC(=O)Nc1ccc(Nc2cc(=O)n(C)c(=O)[nH]2)cc1	HCC 2998	GI50	> 100 µM (inactive)
COC(=O)C12C3C=CC(O3)C1C1C=CC2O1 (stereo unspecified)	HCC 2998	GI50	> 100 µM (inactive)
O/N=C1\C(=C\c2ccc3c(c2)OCCO3)CCCC1C(NO)c1ccc2c(c1)OCCO2 (stereo unspecified)	HCC 2998	GI50	22.6 µM (inactive)
CC(C)(C)CC(C)(C)c1cc2c(O)c(c1)Cc1cc(C(C)(C)CC(C)(C)C)cc(c1O)Cc1cc(C(C)(C)CC(C)(C)C)cc(c1O)Cc1cc(C(C)(C)CC(C)(C)C)cc(c1O)Cc1cc(C(C)(C)CC(C)(C)C)cc(c1O)C2	HCC 2998	GI50	> 100 µM (inactive)
NC(=O)C(=Cc1ccc(C(O)P(=O)(O)O)cc1)C(N)=O (stereo unspecified)	HCC 2998	GI50	> 100 µM (inactive)

###

GI50 values by entry
system: SNB-75; assay: NCI tumour cell line growth inhibition, 48 h
Active and inactive are the calls of the source. Cut-off read from the data, not from the text of the source: active = GI50 up to about 1.1 µM and inactive = higher.

molecule	GI50
O=C1C[S+]([O-])c2ccccc2N1 (stereo not given)	> 100 µM (inactive)
COc1ccc(/N=N/C(C(=O)c2ccccc2)C(=O)c2ccccc2)cc1	20.6 µM (inactive)
O=C1C2=C(C3=NCCc4c[nH]c1c43)c1c(cc(Br)c(O)c1Br)CCN2	16.3 µM (inactive)
c1ccc(-c2csc3ncn4cnnc4c23)cc1	22.3 µM (inactive)
C[C@H]1[C@H](C)N(Cc2ccccc2)P(=O)(C(O)/C=C/c2ccccc2)N1Cc1ccccc1 (stereo not given in full)	6.95 µM (inactive)
O=C1C=C(c2c(O)ccc3ccccc23)c2ccccc2C1=O	3.87 µM (inactive)
NCCCN(CCCN)CCN(CCN(CCCN)CCCN)CCN(CCCN)CCCN	4.95 µM (inactive)
Nc1ccc(/N=N/c2ccc(-c3ccc(/N=N/c4c(S(=O)(=O)O)cc5cc(S(=O)(=O)O)c(/N=N/c6ccc([N+](=O)[O-])cc6)c(N)c5c4O)cc3)cc2)c2cc(S(=O)(=O)O)ccc12	78.9 µM (inactive)
c1ccc(-n2cnnc2-c2nsc3ccccc23)cc1	29.5 µM (inactive)
O=C(Nc1sccc1S(=O)(=O)c1ccc(Cl)cc1)C(F)(F)F	20.9 µM (inactive)

###

tested on: NCI/ADR-RES; assay: NCI tumour cell line growth inhibition, 48 h
Calls of active or inactive are those of the source. No stated cut-off is given here; in the data, active = GI50 up to about 1.1 µM and inactive = higher.
measured_attribute: GI50

compound	recorded_measurement
NS(=O)(=O)c1nnc(NS(=O)(=O)c2ccccc2[N+](=O)[O-])s1	> 100 µM (inactive)
CC1OC(OC2C(O[C@H]3CC[C@@]4(C)C(=CC[C@H]5[C@@H]6C[C@@H]7O[C@]8(CC[C@H](C)CN8)[C@@H](C)[C@@H]7[C@@]6(C)CC[C@@H]54)C3)OC(CO)C(O)C2OC2OC(CO)C(O)C(O)C2O)C(O)C(O)C1O (stereo partly specified)	16.4 µM (inactive)
Cc1cc(OC(=O)NCn2cc(-c3ccccc3)nn2)ccc1Cl	83.4 µM (inactive)
Cc1ccc2c(c1)C(=S)N1CSCC1c1nncn1-2 (stereo unspecified)	> 100 µM (inactive)
CN(C)C1=Nc2ccccc2C(=S)N2CSCC12 (stereo unspecified)	73.8 µM (inactive)
COc1cccc2c1C(=O)c1c(O)c3c(c(O)c1C2=O)C[C@@](O)(C(=O)CN1CCOCC1)C[C@@H]3OC1CC(N)C(O)C(C)O1 (stereo partly specified)	5.52 µM (inactive)

###

tested on: MDA-N; test: NCI tumour cell line growth inhibition, 48 h
The source made the active and inactive calls. No stated cut-off is given here; in the data, active = GI50 up to about 1.1 µM and inactive = higher.
GI50 values by entry

compound	GI50
CCOC(=O)/C(C#N)=C(/NNc1ccccc1)c1ccncc1C(=O)O	> 40.8 µM (inactive)
O=C(Nc1sccc1S(=O)(=O)c1ccc(Cl)cc1)C(F)(F)F	8.28 µM (inactive)
CCOC(=O)CCCN	> 100 µM (inactive)
COC(=O)c1c(C)cccc1C1CN=NC12Cc1cccc(C)c1C2=O (stereo not drawn)	33.6 µM (inactive)
COc1ccc2cc1Oc1ccc(cc1)CC1c3cc(OC)c(cc3CCN1C)Oc1c(OC)c(OC)cc3c1C(C2)N(C)CC3 (stereo not drawn)	10.5 µM (inactive)
Cc1ccccc1NC(=O)CC(=O)NNC(Sc1ccccc1)c1cc(/N=N/c2ccc(Br)cc2)ccc1O (stereo not drawn)	3.14 µM (inactive)
O=C(Nc1ccc(Cl)cc1)C(=O)C1=C(O)c2ccccc2OC1	> 100 µM (inactive)
CC(C)(Cl)C(Br)CCC(C)(Cl)C(Br)CBr (stereo not drawn)	31 µM (inactive)
CC(C)=CC(=O)c1[nH]c2ccccc2c1CC(=O)NCCc1c[nH]cn1	> 100 µM (inactive)
CC(C)(C)OC(=O)NCCCCC(NC(=O)OCc1ccccc1)C(N)=O (stereo not drawn)	> 100 µM (inactive)
O=C(O)CC1NC(/C(=C/c2ccccc2)NC(=O)c2ccccc2)OC1=O (stereo not drawn)	30.1 µM (inactive)
C[C@]12CC/C(=N\O)C=C1CC[C@@H]1[C@@H]2CC[C@]2(C)C(=N/O)/C(=C/c3ccncc3)C[C@@H]12	21.7 µM (inactive)
Cn1c(-c2cccs2)cc(-c2ccccc2)c1-c1cccs1	> 100 µM (inactive)
CC(=N/NC(=S)N1CCCCC1)/C(C)=N\NC(=S)N1CCCCC1	2.47 µM (inactive)
COC(=O)c1cc2c(n1S(=O)(=O)c1ccc(C)cc1)C(=O)C(=O)c1[nH]cc(C(=O)OCc3ccccc3)c1-2	< 0.01 µM (active)
CCOC(=O)C(C(N)=O)C1=Nc2cc([N+](=O)[O-])ccc2N/C1=C\C(=O)c1ccc(C)cc1 (stereo not drawn)	43.3 µM (inactive)
COc1ccc2nc3ccc(OC)cc3c([S+]([O-])Cc3ccc([N+](=O)[O-])cc3)c2c1 (stereo not drawn)	14.2 µM (inactive)
O=C(O)CCNc1[nH]cnc2ncnc1-2	> 100 µM (inactive)
c1cc(-c2ncc(-c3ccc4c(c3)CCCO4)o2)ccn1	2.48 µM (inactive)
O=c1[nH]c(=O)n(C2CC(O)C(CO)O2)c2nc3ccc4cc5ccccc5cc4c3nc12 (stereo not drawn)	> 100 µM (inactive)
O=C(OC1C#CCSCC#C/C=C\1)c1cnc2ccccc2n1 (stereo not drawn)	> 100 µM (inactive)
COc1ccc2o/c(=N\c3ccc(F)cc3)c(C(N)=O)cc2c1	> 100 µM (inactive)
Cc1nc2c(ccc3[nH]c4ccccc4c32)s1	31.1 µM (inactive)
Cc1cc(NS(=O)(=O)c2ccc(NC(=O)c3ccc4nc5ccccc5c(Nc5ccc(S(N)(=O)=O)cc5)c4c3)cc2)no1	25.6 µM (inactive)
O=C1CSC(c2ccc(Cl)cc2)N1c1ccc(-c2ccc(-n3c(-c4ccccc4)nc4ccccc4c3=O)cc2)cc1 (stereo not drawn)	32.1 µM (inactive)
COC(=O)[C@@H]1C[C@@H]2c3ccccc3N(S(=O)(=O)c3ccccc3)[C@@H]2N1C(=O)OC	> 100 µM (inactive)
COC/C=C\[C@@]1(O)CCCC[C@@H]1CC(OC)OC	33.7 µM (inactive)
O=C1[C@H](O)[C@@H]2CCC[C@@]23CCCN13	> 100 µM (inactive)
NC(=O)C(=CNC(=S)Nc1cccc(C(F)(F)F)c1)C(N)=O	> 100 µM (inactive)
CC(C)(C)OC(=O)N1NC(c2ccccc2)CC1c1ccccc1 (stereo not drawn)	42.6 µM (inactive)
CC1OC(O[C@@H]2OC=C(C=O)[C@@]3(O)CC[C@H](C)[C@@H]23)C(O)C(O)C1O (stereo partly drawn)	> 100 µM (inactive)
CC(=O)OC(C)c1cc2c(s1)C(=O)c1ccsc1C2=O (stereo not drawn)	0.0206 µM (active)
CC(=O)Nc1ccc(Nc2cc(=O)n(C)c(=O)[nH]2)cc1	> 100 µM (inactive)
Cc1c(O)c(C)c2c(C)cn(C(=O)C(C)(C)C)c2c1C	21.2 µM (inactive)
O=c1cnn(C/C=C/CBr)c(=O)[nH]1	14.7 µM (inactive)
NNc1nnc(-c2nnc(NN)o2)o1	> 10 µM (inactive)
O=c1oc2ccccc2cc1-c1nnc(-c2ccccc2)s1	2.54 µM (inactive)
CCCCCCOc1ccc(NC2=C(Cl)C(=O)c3c(O)ccc(O)c3C2=O)cc1	2.99 µM (inactive)
CCOP(=O)(OCC)/C(C#N)=C/c1coc2cc(C)cc(C)c2c1=O	> 100 µM (inactive)
CC1C(c2ccccc2)O[B-](F)(c2ccccc2)[NH+]1C (stereo not drawn)	> 100 µM (inactive)
c1ccc2c(c1)SCCCSCCCS2	> 100 µM (inactive)
Cc1cc(S(=O)(=O)Nc2nc3cc(-c4ccc(Cl)cc4)sc3c(=O)n2N)c(S)cc1Cl	53.8 µM (inactive)
N#Cc1cc2c(n(C3OC(CO)C(O)C(O)C3O)c1=S)CCC2 (stereo not drawn)	> 100 µM (inactive)

Origin of the recorded values: ChEMBL document CHEMBL1201862
